// provenance: paper PMC10762177

# ASSAY TARGET: UniProt:P08183
# Sequence (P08183 whole entry): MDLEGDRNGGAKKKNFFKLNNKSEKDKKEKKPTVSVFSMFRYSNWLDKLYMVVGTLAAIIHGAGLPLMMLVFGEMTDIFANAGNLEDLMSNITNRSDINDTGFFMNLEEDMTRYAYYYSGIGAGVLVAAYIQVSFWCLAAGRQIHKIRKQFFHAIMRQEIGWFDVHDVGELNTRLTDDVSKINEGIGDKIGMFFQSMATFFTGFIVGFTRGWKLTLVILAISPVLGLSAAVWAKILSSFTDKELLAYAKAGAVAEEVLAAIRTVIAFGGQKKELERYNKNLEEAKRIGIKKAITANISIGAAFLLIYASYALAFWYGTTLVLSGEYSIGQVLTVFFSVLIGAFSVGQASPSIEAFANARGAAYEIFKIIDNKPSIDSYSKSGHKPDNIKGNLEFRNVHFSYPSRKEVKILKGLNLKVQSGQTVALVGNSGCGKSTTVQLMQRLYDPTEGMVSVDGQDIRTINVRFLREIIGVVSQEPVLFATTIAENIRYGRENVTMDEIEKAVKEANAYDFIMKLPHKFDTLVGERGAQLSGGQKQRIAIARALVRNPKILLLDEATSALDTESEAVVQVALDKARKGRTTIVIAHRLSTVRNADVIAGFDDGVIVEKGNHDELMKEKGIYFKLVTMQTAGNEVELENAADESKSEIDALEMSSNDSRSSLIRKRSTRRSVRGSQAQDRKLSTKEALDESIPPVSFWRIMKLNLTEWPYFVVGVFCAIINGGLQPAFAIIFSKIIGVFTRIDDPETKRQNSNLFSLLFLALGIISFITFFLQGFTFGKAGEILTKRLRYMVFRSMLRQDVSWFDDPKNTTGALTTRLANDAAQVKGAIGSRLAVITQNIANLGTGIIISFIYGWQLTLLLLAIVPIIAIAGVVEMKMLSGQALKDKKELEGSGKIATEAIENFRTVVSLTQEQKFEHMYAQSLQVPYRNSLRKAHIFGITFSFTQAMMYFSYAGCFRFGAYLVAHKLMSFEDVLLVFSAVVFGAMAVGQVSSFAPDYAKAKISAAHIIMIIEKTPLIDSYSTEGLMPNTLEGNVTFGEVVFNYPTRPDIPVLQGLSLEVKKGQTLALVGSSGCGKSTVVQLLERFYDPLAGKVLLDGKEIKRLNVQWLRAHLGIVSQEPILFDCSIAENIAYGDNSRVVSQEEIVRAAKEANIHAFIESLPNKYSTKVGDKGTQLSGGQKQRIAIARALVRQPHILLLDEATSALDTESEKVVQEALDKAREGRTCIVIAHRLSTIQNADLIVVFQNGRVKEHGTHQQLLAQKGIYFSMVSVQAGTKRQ
# EXPERIMENT SUMMARY: Rhodamine 123 intracellular accumulation assay in K562/Dox (flow cytometry)
# RECORDED CONDITIONS: Rho123, K562/Dox, 6.25 µM
For each record, write down the corresponding FAR (fluorescence activity ratio).
One number for each entry.

Example results:
SMI: C=C(C)[C@@H]1CC[C@]2(COC(=O)NCCc3ccc(OC)c(OC)c3)CC[C@]3(C)[C@H](CC[C@@H]4[C@@]5(C)CC[C@H](O)C(C)(C)[C@@H]5CC[C@]43C)[C@@H]12
ASSAY READOUT: FAR (fluorescence activity ratio)
NUMERIC READOUT: 1.45

SMI: C=C(C)[C@@H]1CC[C@]2(CO)CC[C@]3(C)[C@H](CC[C@@H]4[C@@]5(C)CC[C@H](O)C(C)(C)[C@@H]5CC[C@]43C)[C@@H]12
ASSAY READOUT: FAR (fluorescence activity ratio)
NUMERIC READOUT: 1.32

SMI: C=C(C)[C@@H]1CC[C@]2(COC(=O)NCCN3CCNCC3)CC[C@]3(C)[C@H](CC[C@@H]4[C@@]5(C)CC[C@H](O)C(C)(C)[C@@H]5CC[C@]43C)[C@@H]12
ASSAY READOUT: FAR (fluorescence activity ratio)
NUMERIC READOUT: 2.24

In: Output reported FAR (fluorescence activity ratio) of the molecule C=C(C)[C@@H]1CC[C@]2(COC(=O)N3CCN(C)CC3)CC[C@]3(C)[C@H](CC[C@@H]4[C@@]5(C)CC[C@H](O)C(C)(C)[C@@H]5CC[C@]43C)[C@@H]12 on UniProt:P08183.
Out: 2.04
